- assayText: Cytotoxicity against human THP1 cells by MTT assay
- Type: cell-based
- measurementConditions: THP-1 cells
Form field: CC50 (one value per entry).
quantityMeasured: CC50

> print(dat)
                             chemicalsmiles  valuereported
1       COc1ccc(/C=C/C(=O)c2cc(OC)ccc2O)cc1       > 100 µM
2  COc1ccc(C(=O)/C=C/c2ccc(OC)c(OC)c2)c(O)c1       > 100 µM
3   COc1ccc(O)c(C(=O)/C=C/c2c(OC)cccc2OC)c1        > 25 µM
4       COc1ccc(/C=C/C(=O)c2ccc(OC)cc2O)cc1       > 100 µM
5       COc1cccc(/C=C/C(=O)c2ccc(OC)cc2O)c1        > 25 µM
6   COc1ccc(C(=O)/C=C/c2c(OC)cccc2OC)c(O)c1       > 100 µM
7  COc1cc(O)c(C(=O)/C=C/c2cc(OC)c(OC)c(OC)c2)cc1OC        > 25 µM
